The reported numbers originate from PubChem BioAssay AID1918931.

Test system: 138582-337-R-J1-PDC complex spheroid viability;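 further: spheroids exposed to agents for 7 days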
Assay: Anticancer human tumor 138582-337-R-J1-PDC patient-derived Merkel cell tumor cell line growth inhibition; active means viability on the fitted dose curve at most 10% of control; inactive means the rest
Details: second compound 3.16 µM; first compound 0.0949 µM
Choose the fitting class; nothing outside active, inactive is accepted.

NS(=O)(=O)OCC1CC(n2ccc3c(NC4CCc5ccccc54)ncnc32)CC1O (configuration not stated) + NC1CC1c1ccc(-c2cccc(O)c2)cc1 = inactive
CCc1c2c(nc3ccc(O)cc13)-c1cc3c(c(=O)n1C2)COC(=O)[C@]3(O)CC + NC1CCC(NC2CC2c2ccccc2)CC1 = active
Nc1ccn(C2OC(CO)C(O)C2(F)F)c(=O)n1 (configuration not stated) + NC1CCC(NC2CC2c2ccccc2)CC1 = inactive
O=C(C=Cc1cccc(S(=O)(=O)Nc2ccccc2)c1)NO + NC1CC1c1ccc(-c2cccc(O)c2)cc1 = inactive
COc1cc(C2c3cc4c(cc3C(OC3OC5COC(C)OC5C(O)C3O)C3COC(=O)C23)OCO4)cc(OC)c1O (configuration not stated) + NC1CCC(NC2CC2c2ccccc2)CC1 = inactive

Field: outcome | Entry: Nc1ccccc1NC(=O)c1ccc(CNC(=O)OCc2cccnc2)cc1 + NC1CC1c1ccc(-c2cccc(O)c2)cc1
inactive

Field: outcome | Entry: CCN(c1cc(-c2ccc(CN3CCOCC3)cc2)cc(C(=O)NCc2c(C)cc(C)[nH]c2=O)c1C)C1CCOCC1 + NC1CC1c1ccc(-c2cccc(O)c2)cc1
inactive
